Values from patent EP0139358B1

- Test system: Swiss-Webster male mice
- test.name: Mouse Activity and Screen Test (MAST): screen test (ST)
- Type: in vivo
- condition: lowest dose at which an A rating (60-100%) is achieved, screen test; intraperitoneally
Field: MAST ST LAD. Provide a value for each of the molecules that follow.

Consider the worked cases shown below.
# molecule, observed.result
rows = [
    ("OC[C@H]1O[C@@H](n2cnc3c(NCCCC(c4ccccc4)c4ccccc4)ncnc32)[C@H](O)[C@@H]1O [Example 6, N^6-(4,4-Diphenylbutyl)adenosine]", ">100 mg/kg"),
    ("OC[C@H]1O[C@@H](n2cnc3c(NCCCCC(c4ccccc4)c4ccccc4)ncnc32)[C@H](O)[C@@H]1O [Example 7, N^6-(5,5-Diphenylpentyl)adenosine]", ">100 mg/kg"),
    ("OC[C@H]1O[C@@H](n2cnc3c(NCCC(c4ccccc4)c4ccccc4)ncnc32)[C@H](O)[C@@H]1O [Example 2, N^6-(3,3-Diphenylpropyl)adenosine]", ">100 mg/kg"),
    ("CC(=O)OC[C@H]1O[C@@H](n2cnc3c(NCC(c4ccccc4)c4ccccc4)ncnc32)[C@H](OC(C)=O)[C@@H]1OC(C)=O [Example 25]", ">100 mg/kg"),
    ("Nc1nc(NCC(c2ccccc2)c2ccccc2)c2ncn([C@@H]3O[C@H](CO)[C@@H](O)[C@H]3O)c2n1 [Example 4, N^6-(2,2-Diphenylethyl)-2-aminoadenosine]", ">100 mg/kg"),
]

// below: MAST ST LAD requested for another molecule
QUERY: For Swiss-Webster male mice, give the measured MAST ST LAD of the entry OC[C@H]1O[C@@H](n2cnc3c(NCC(O)(c4ccccc4)c4ccccc4)ncnc32)[C@H](O)[C@@H]1O [Example 22]
RESULT: 100 mg/kg
